System: BT-474
Experiment: Cell viability (cytotoxicity) assay with MTT
Format: cell-based
Conditions: 1uM, approximate viability percentage
Collected TOXICITY 1uM BT-474 (% viab. approx .) values appear next to each entry.
Write the number in % without appending the unit.

Solved cases below.
compound: O=C1CC2OC(c3cc(OCc4ccccc4)cc(OCc4ccccc4)c3)=NC2CO1 (stereo not drawn)
TOXICITY 1uM BT-474 (% viab. approx .) [%]: 97
--
compound: COc1cc(OC)cc(C2=NC3COC(=O)CC3O2)c1 (stereo not drawn)
TOXICITY 1uM BT-474 (% viab. approx .) [%]: 55
--
compound: O=C1CC2OC(c3cccc(OCCN4CCOCC4)c3)=NC2CO1 (stereo not drawn)
TOXICITY 1uM BT-474 (% viab. approx .) [%]: 86

*Q* Given the entry COc1cccc(C2=NC3COC(=O)CC3O2)c1 (stereo not drawn) , report its measured TOXICITY 1uM BT-474 (% viab. approx .).
*A* 97

*Q* Would you mind telling me what TOXICITY 1uM BT-474 (% viab. approx .) value was observed for CCCOc1cccc(C2=NC3COC(=O)CC3O2)c1 (stereo not drawn) ?
*A* 89

*Q* Which TOXICITY 1uM BT-474 (% viab. approx .) value is on record for CCCCCOc1cccc(C2=NC3COC(=O)CC3O2)c1 (stereo not drawn) ?
*A* 168

###

# reported TOXICITY 1uM MCF-7 (% viab. approx .); entries follow
Tested on: MCF-7
Experiment: Cell viability (cytotoxicity) assay with MTT
Format: cell-based
Conditions: 1uM, approximate viability percentage
Entry rule: numbers only, all in %.

molecule: O=C1CC2OC(c3cc(OCc4ccccc4)cc(OCc4ccccc4)c3)=NC2CO1 (stereo not drawn) [IQM11PS03]
TOXICITY 1uM MCF-7 (% viab. approx .) [%]: 98

molecule: COc1cccc(C2=NC3COC(=O)CC3O2)c1 (stereo not drawn) [IQM11PS01]
TOXICITY 1uM MCF-7 (% viab. approx .) [%]: 115

molecule: CCCOc1cccc(C2=NC3COC(=O)CC3O2)c1 (stereo not drawn) [IQM11PS04]
TOXICITY 1uM MCF-7 (% viab. approx .) [%]: 109

molecule: COc1cc(OC)cc(C2=NC3COC(=O)CC3O2)c1 (stereo not drawn) [IQM11PS02]
TOXICITY 1uM MCF-7 (% viab. approx .) [%]: 99

molecule: O=C1CC2OC(c3cccc(OCCN4CCOCC4)c3)=NC2CO1 (stereo not drawn) [IQM11PS06]
TOXICITY 1uM MCF-7 (% viab. approx .) [%]: 97

Pending molecule:
*Q* For CCCCCOc1cccc(C2=NC3COC(=O)CC3O2)c1 (stereo not drawn) [IQM11PS05] , what is its reported TOXICITY 1uM MCF-7 (% viab. approx .)?
*A* 92
